Origin of the recorded values: patent US8952024B2

Tested on: woolly cupgrass (Eriochloa villosa)
assay_method_text: Test B pre-/postemergence plant response
Format: in vivo
protocol_conditions: 31 g ai/ha, postemergence; scale 0 to 100, 0 is no effect, 100 is complete control
Plant response rating, Cupgrass, Woolly overview
Keep the answer to the number alone.

Known results for compounds:
compound: COCCn1c(-c2cccc(C)c2)ncc(C(=O)C2=C(O)CCCC2=O)c1=O [Compound 117]
Plant response rating, Cupgrass, Woolly: 65
--
compound: CCCCn1c(-c2cc(F)cc(F)c2)ncc(C(=O)C2=C(O)CCCC2=O)c1=O [Compound 121]
Plant response rating, Cupgrass, Woolly: 95
--
compound: Cc1ccccc1-c1ncc(C(=O)C2=C(O)CCCC2=O)c(=O)n1-c1ccccc1 [Compound 82]
Plant response rating, Cupgrass, Woolly: 55
--
compound: CCCCn1c(-c2ccccc2)ncc(C(=O)C2=C(O)CCCC2=O)c1=O [Compound 86]
Plant response rating, Cupgrass, Woolly: 75
--
compound: O=C1CCCC(OC(=O)C2CC2)=C1C(=O)c1cnc(-c2ccccc2)n(-c2ccccc2)c1=O [Compound 88]
Plant response rating, Cupgrass, Woolly: 75
--
compound: CCCc1ncc(C(=O)C2=C(O)CCCC2=O)c(=O)n1CC1CCCO1 (stereo not drawn) [Compound 74]
Plant response rating, Cupgrass, Woolly: 10
--
compound: COCCCn1c(-c2cccc(C)c2)ncc(C(=O)C2=C(O)CCCC2=O)c1=O [Compound 118]
Plant response rating, Cupgrass, Woolly: 65
--
compound: COCC(C)n1c(-c2ccccc2)ncc(C(=O)C2=C(O)CCCC2=O)c1=O (stereo not drawn) [Compound 107]
Plant response rating, Cupgrass, Woolly: 65

We next turn to a different compound, shown below.
*Q* State, for woolly cupgrass (Eriochloa villosa), measured Plant response rating, Cupgrass, Woolly of the compound listed here: CCCCCn1c(-c2ccccc2)ncc(C(=O)C2=C(O)CCCC2=O)c1=O [Compound 89]
*A* 35
